Molecular target: Biotinylated human DLL3 (Delta Like Canonical Notch Ligand 3) (human) (UniProt Q9NYJ7)
Sequence (Q9NYJ7 27-492 limits assumed, stated change not applied): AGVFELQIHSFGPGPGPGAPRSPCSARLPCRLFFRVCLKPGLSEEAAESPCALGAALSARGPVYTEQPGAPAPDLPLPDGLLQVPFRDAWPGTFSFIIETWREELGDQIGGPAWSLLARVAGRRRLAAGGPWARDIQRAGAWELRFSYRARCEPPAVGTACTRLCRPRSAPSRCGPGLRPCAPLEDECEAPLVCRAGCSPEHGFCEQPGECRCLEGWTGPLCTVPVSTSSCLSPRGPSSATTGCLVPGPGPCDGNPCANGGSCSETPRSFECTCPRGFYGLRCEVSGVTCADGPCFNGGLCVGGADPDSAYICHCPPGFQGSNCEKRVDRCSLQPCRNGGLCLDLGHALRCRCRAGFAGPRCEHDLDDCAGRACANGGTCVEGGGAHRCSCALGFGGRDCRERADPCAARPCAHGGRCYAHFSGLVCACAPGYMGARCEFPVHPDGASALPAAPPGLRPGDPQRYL
Test: SPR; letter grade, key in paragraph 614
pKd: −log10 of the molar value. Bridge positions count the residues as written; N and C are the ends. Square brackets hold non-standard residues; d marks the D form. * marks the point of attachment. DOTA = O=C(O)CN1CCN(CC(=O)O)CCN(CC(=O)*)CCN(CC(=O)O)CC1; Trp(5-F) = N[C@@H](Cc1c[nH]c2ccc(F)cc12)C(=O)O; Trp(7-aza) = N[C@@H](Cc1c[nH]c2ncccc12)C(=O)O; Pro(trans-4-F) = O=C(O)[C@@H]1C[C@@H](F)CN1; 2Nal = N[C@@H](Cc1ccc2ccccc2c1)C(=O)O; Cha = N[C@@H](CC1CCCCC1)C(=O)O
experimental_readout: pKd

Please report the recorded pKd for Ac-[Trp(5-F)]T[Cha]CNN[2Nal]HDC[Trp(7-aza)][Pro(trans-4-F)][dK](DOTA)-NH2 (disulfide 4-10) [Cpd No. 245] .
> 9.00
